- experimental.system: Polyunsaturated fatty acid 5-lipoxygenase (Homo sapiens, UniProt P09917)
- Sequence (P09917 whole entry): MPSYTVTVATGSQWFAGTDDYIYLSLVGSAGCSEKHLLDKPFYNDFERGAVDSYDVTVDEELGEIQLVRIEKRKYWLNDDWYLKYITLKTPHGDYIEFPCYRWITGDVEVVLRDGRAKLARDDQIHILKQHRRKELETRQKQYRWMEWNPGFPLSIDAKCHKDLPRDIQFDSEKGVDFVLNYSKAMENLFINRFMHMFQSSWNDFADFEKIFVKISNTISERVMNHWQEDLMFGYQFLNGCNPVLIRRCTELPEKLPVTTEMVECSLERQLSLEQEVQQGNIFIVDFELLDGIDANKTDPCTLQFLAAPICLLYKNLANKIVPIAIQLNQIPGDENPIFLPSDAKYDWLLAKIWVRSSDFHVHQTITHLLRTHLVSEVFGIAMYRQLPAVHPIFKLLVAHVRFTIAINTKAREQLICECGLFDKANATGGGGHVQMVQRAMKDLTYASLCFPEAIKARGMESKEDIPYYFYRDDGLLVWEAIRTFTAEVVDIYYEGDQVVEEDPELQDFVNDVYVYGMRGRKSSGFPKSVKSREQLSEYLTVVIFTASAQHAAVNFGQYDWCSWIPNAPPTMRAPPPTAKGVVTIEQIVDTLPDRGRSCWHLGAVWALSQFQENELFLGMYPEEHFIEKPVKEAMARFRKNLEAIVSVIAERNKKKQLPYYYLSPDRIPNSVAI
- experiment.description: Inhibition of human 5-LOX using arachidonic acid as substrate preincubated for 10 mins followed by substrate addition by H2DCFDA staining-based fluorometric analysis
observed.property: IC50

Worked examples follow.
In [3]: df
Out[3]:
                               smiles_input                       experimental_system  observed_property  value_measured
0      O=C(O)c1cccc(C(=O)Nc2cccc3ccccc23)c1  Polyunsaturated fatty acid 5-lipoxygenase (Homo sapiens, UniProt P09917)               IC50         > 50 µM
1  O=C(Oc1cccc(Cl)c1Cl)c1cc([N+](=O)[O-])cc([N+](=O)[O-])c1  Polyunsaturated fatty acid 5-lipoxygenase (Homo sapiens, UniProt P09917)               IC50         > 50 µM

Query compound follows.
// IC50 value for "O=C(Nc1cccc(Br)c1)c1cc([N+](=O)[O-])cc([N+](=O)[O-])c1" : > 50 µM
